Values were extracted from patent US20070004634A1.

Record form. Attribute: ratio over background. Fill in for each entry.
tested on: T1, soluble human insulin receptor-immunoglobulin heavy chain chimera (sIR-Fc; Bass et al., 1996) (human), P06213
T1 chain: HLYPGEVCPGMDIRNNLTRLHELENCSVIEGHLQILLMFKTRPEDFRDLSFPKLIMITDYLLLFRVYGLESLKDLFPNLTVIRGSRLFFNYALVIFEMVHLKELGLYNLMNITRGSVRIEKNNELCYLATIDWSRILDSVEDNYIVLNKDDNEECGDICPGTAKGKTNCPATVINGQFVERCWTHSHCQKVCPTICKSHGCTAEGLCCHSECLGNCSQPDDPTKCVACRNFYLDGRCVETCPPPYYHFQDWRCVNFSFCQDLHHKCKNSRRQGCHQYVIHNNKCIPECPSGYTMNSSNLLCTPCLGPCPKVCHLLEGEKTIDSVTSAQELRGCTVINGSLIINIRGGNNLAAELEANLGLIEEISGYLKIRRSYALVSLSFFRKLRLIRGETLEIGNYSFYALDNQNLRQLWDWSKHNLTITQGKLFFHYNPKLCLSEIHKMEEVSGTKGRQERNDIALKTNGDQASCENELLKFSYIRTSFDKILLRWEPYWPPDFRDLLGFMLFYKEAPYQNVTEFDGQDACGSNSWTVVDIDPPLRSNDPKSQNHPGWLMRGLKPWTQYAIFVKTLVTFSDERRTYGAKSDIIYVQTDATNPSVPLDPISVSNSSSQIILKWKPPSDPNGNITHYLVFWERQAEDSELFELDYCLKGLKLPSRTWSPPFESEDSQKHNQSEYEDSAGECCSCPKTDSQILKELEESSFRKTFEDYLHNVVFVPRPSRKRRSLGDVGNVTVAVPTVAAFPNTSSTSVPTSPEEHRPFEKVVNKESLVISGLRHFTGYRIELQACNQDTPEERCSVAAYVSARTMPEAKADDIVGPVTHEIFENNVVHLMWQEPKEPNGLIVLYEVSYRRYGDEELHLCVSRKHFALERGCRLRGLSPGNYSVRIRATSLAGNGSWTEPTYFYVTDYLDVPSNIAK
assay: phage ELISA
No end group written: not given here.
Answers are plain numbers.

Please review the entries below; each comes with its answer.
{"columns": ["binder", "ratio over background"],
 "data": [
  ["CMMXDGFYAGLGCLLTAGEGR (not fully specified; printed as CMM.DGFYAGLGCLLTAGEGR; X: residue not identified in the source; cysteine pairing not given here) [20E2B-3-C11-IGFR]", 2.1],
  ["RCGRWXAEMGAGDDPFYHKLSELVCG (not fully specified; X: residue not identified in the source; cysteine pairing not given here) [B6Hα-2-C4-IR]", 0.9],
  ["VVTPVNFYRALEALVRGXRLG (not fully specified; printed as VVTPVNFYRALEALVRG.RLG; X: residue not identified in the source) [20E2B-2-B11-IGFR]", 1.1]
]}

Moving on to another binder below.
Sure, the documented ratio over background for CCLLCRFQQNFYDWFVCQGISRLRPL (modifications not checked) [H2CA-2-B4-IGFR] is 1.1
